assayNotes: Selectivity index, ratio of IC50 for human HeLa cells to MIC for metronidazole-susceptible Trichomonas vaginalis
Assay type: toxicity
details: read-out: Selectivity Index
# selectivity ratio listing for each entry below

CSC(=S)N1CCN(C(=S)SC(=S)N(C)C)CC1: > 17
CN(C)C(=S)SC(=S)N1CCN(C(=O)NC2CCCCC2)CC1: > 37
CN(C)C(=S)SC(=S)N1CCN(C(=S)SCCCC#N)CC1: > 79
CN(C)C(=S)SC(=S)N1CCN(C(=S)SCc2ccccc2)CC1: > 83
CCN(CC)C(=S)SC(=S)N(C)C: > 94
CN(C)C(=S)SC(=S)N(C)C: > 83
Cc1ncc([N+](=O)[O-])n1CCO [METRONIDAZOLE]: > 277
CN(C)C(=S)SC(=S)N1CCN(C(=S)Nc2ccccc2)CC1: > 617

Quick note, selectivity ratio for CN(C)C(=S)SC(=S)N1CCN(C(=S)NCc2ccccc2)CC1 landed at > 40

CN(C)C(=S)SC(=S)N1CCCCCC1 yielded selectivity ratio of > 52

The compound CN(C)C(=S)SC(=S)N1CCN(C(=S)NCCc2ccccc2)CC1 showed selectivity ratio equal to > 83

Please fill in: selectivity ratio reported for CN(C)C(=S)SC(=S)N1CCN(C(=S)NC2CCCCC2)CC1 = > 161

The measured selectivity ratio associated with CN(C)C(=S)SC(=S)N1CCCCC1 reads > 200

* * *

Tested on: Candida albicans
assayNotes: Antifungal activity against Candida albicans ATCC 10231 after 48 hrs by broth microdilution method
Type: functional
details: ATCC 10231, 48 h
Each entry below carries its recorded MIC.

Some compounds with known MIC results, for comparison:
CN(C)C(=S)SC(=S)N1CCN(C(=S)SCc2ccccc2)CC1: > 120 µM
CN(C)C(=S)SC(=S)N1CCN(c2ccccc2)CC1: > 153 µM

Consider the additional compound presented here.
// recorded MIC for CCCCNC(=S)N1CCN(C(=S)SC(=S)N(C)C)CC1 : > 137 µM

* * *

We begin with a simple list: items and their reported IC50.
Test system: HeLa
assayNotes: Cytotoxicity against human HeLa cells after 24 hrs by MTT assay
Type: cell-based

CN(C)C(=S)SC(=S)N1CCN(C(=S)SCCCC#N)CC1: > 5 mM
CN(C)C(=S)SC(=S)N1CCCCC1: > 5 mM
CN(C)C(=S)SC(=S)N1CCN(C(=S)NCCc2ccccc2)CC1: > 5 mM
CN(C)C(=S)SC(=S)N1CCN(C(=S)NC2CCCCC2)CC1: > 5 mM
CN(C)C(=S)SC(=S)N1CCN(C(=S)SCc2ccccc2)CC1: > 5 mM

Note to self: IC50 of CCN(CC)C(=S)SC(=S)N(C)C with HeLa was > 5 mM

IC50 on HeLa for CCCCSC(=S)N1CCN(C(=S)SC(=S)N(C)C)CC1 is > 5 mM

Param item: CN(C)C(=S)SC(=S)N1CCN(C(=S)Nc2ccccc2)CC1 ; param system: HeLa; output IC50: > 5 mM

Measured IC50 (HeLa), entry CN(C)C(=S)SC(=S)N1CCN(c2ncccn2)CC1 : > 5 mM

Assay HeLa, sample CN(C)C(=S)SC(=S)N(C)C , IC50 read: > 5 mM

Hey, HeLa data for CN(C)C(=S)SC(=S)N1CCN(C(=O)NC2CCCCC2)CC1 : IC50 came out at > 5 mM

HeLa assay, compound CN(C)C(=S)SC(=S)N1CCN(c2cccc(Cl)c2)CC1 , recorded IC50 = > 5 mM

Item CN(C)C(=S)SC(=S)N1CCN(C(=S)NCc2ccccc2)CC1 was tested on HeLa; the reported IC50 is > 5 mM

IC50 of CSC(=S)N1CCN(C(=S)SC(=S)N(C)C)CC1 , assay on HeLa, is > 5 mM

Note to self: IC50 of CN(C)C(=S)SC(=S)N1CCCCCC1 with HeLa was > 5 mM

Tested system HeLa; IC50 recorded for Cc1ncc([N+](=O)[O-])n1CCO [METRONIDAZOLE] was > 5 mM

* * *

Tested on: Candida albicans
assayNotes: Antifungal activity against Candida albicans MTCC 183 after 48 hrs by broth microdilution method
Type: functional
details: MTCC 183, 48 h
Reported MIC is given for each of the following molecules.
The reply should be a number in µM, with the unit left off.

Past entries and their recorded results:
CN(C)C(=S)SC(=S)N1CCN(c2cccc(Cl)c2)CC1: 69.3
CC1CCCN(C(=S)SC(=S)N(C)C)C1 (stereo not drawn): 47.7
COc1ccccc1N1CCN(C(=S)SC(=S)N(C)C)CC1: 140
CN(C)C(=S)SC(=S)N(C)C: 120
CN(C)C(=S)SC(=S)N1CCOCC1: 50

Form field MIC, entry CN(C)C(=S)SC(=S)N1CCCCC1 : 50.4

Kindly note the recorded MIC for CCCCN1CCN(C(=S)SC(=S)N(C)C)CC1 , which is 81.7

molecule CN(C)C(=S)SC(=S)N1CCN(c2cccc(Cl)c2Cl)CC1 , MIC observed: 63.5

Noted for CN(C)C(=S)SC(=S)N1CCN(c2ncccn2)CC1 : its MIC reads 76.5

// CCN(C)C(=S)SC(=S)N(C)C : MIC value = 56.3

* * *

Tested on: Candida albicans
assayNotes: Antifungal activity against Candida albicans ATCC 10231 after 48 hrs by broth microdilution method
Type: functional
details: ATCC 10231, 48 h
A collection of molecules and their measured MIC

// CN(C)C(=S)SC(=S)N1CCN(c2cccc(Cl)c2)CC1 : MIC value = > 139 µM

For CSC(=S)N1CCN(C(=S)SC(=S)N(C)C)CC1 the molecule record lists MIC as > 147 µM

Note to self: MIC recorded for CN(C)C(=S)SC(=S)N1CCN(C(=S)NCCc2ccccc2)CC1 was > 121 µM

The molecule listed as CN(C)C(=S)SC(=S)N1CCN(C(=S)Nc2ccccc2)CC1 shows MIC equal to > 130 µM

For this molecule ( CN(C)C(=S)SC(=S)N1CCN(C(=S)SCCCC#N)CC1 ), measured MIC is > 127 µM

Looking up CN(C)C(=S)SC(=S)N1CCN(C(=S)NCc2ccccc2)CC1 , I see its MIC listed as > 125 µM

* * *

The entries below are paired with their reported MIC.
Tested on: Cryptococcus neoformans
assayNotes: Antifungal activity against Cryptococcus neoformans after 48 hrs by broth microdilution method
Format: functional

Worked cases, MIC given:
CCCCNC(=S)N1CCN(C(=S)SC(=S)N(C)C)CC1: > 137 µM
CSC(=S)N1CCN(C(=S)SC(=S)N(C)C)CC1: > 147 µM
CN(C)C(=S)SC(=S)N1CCN(C(=O)NC2CCCCC2)CC1: > 133 µM
CN(C)C(=S)SC(=S)N(C)C: 240 µM
CN(C)C(=S)SC(=S)N1CCN(C(=O)OC(C)(C)C)CC1: 143 µM
CCOC(=O)N1CCN(C(=S)SC(=S)N(C)C)CC1: 156 µM

Just so you know, measured MIC for CN(C)C(=S)SC(=S)N1CCN(C(=S)SCCCC#N)CC1 came out at > 127 µM

Reported MIC of CN(C)C(=S)SC(=S)N1CCN(C(=S)NC2CCCCC2)CC1 : > 128 µM

The molecule CN(C)C(=S)SC(=S)N1CCN(C(=S)NCc2ccccc2)CC1 showed MIC equal to > 125 µM

* * *

// values below are reported selectivity ratio
assayNotes: Selectivity index, ratio of IC50 for human HeLa cells to MIC for metronidazole-resistant Trichomonas vaginalis CDC085 ATCC 50143
Format: toxicity
details: read-out: Selectivity Index

CN(C)C(=S)SC(=S)N1CCCCCC1: > 26
CN(C)C(=S)SC(=S)N1CCN(C(=S)SCCCC#N)CC1: > 39
CN(C)C(=S)SC(=S)N1CCN(C(=O)NC2CCCCC2)CC1: > 18

The value of selectivity ratio measured for the compound CN(C)C(=S)SC(=S)N1CCN(C(=S)NC2CCCCC2)CC1 turned out to be > 79

* * *

Below: a set of entries, each annotated with reported MIC.
Test system: Candida albicans
assayNotes: Antifungal activity against Candida albicans MTCC 183 after 48 hrs by broth microdilution method
Format: functional
details: MTCC 183, 48 h

CCCCNC(=S)N1CCN(C(=S)SC(=S)N(C)C)CC1: > 137 µM
CSC(=S)N1CCN(C(=S)SC(=S)N(C)C)CC1: > 147 µM
CN(C)C(=S)SC(=S)N1CCN(C(=S)Nc2ccccc2)CC1: > 130 µM
CN(C)C(=S)SC(=S)N1CCN(C(=S)NCc2ccccc2)CC1: > 125 µM
CN(C)C(=S)SC(=S)N1CCN(C(=S)SCc2ccccc2)CC1: 120 µM

Field MIC (entry CN(C)C(=S)SC(=S)N1CCN(C(=S)NC2CCCCC2)CC1 ) reads > 128 µM

Sample CN(C)C(=S)SC(=S)N1CCN(C(=O)NC2CCCCC2)CC1 ; MIC observed: > 133 µM

MIC measured on CCOC(=O)N1CCN(C(=S)SC(=S)N(C)C)CC1 = 156 µM

CN(C)C(=S)SC(=S)N1CCN(C(=S)NCCc2ccccc2)CC1 yielded MIC of > 121 µM

Record summary for CN1CCN(C(=S)SC(=S)N(C)C)CC1 : reported MIC = 95 µM

Memo: CN(C)C(=S)SC(=S)N1CCN(C(=S)SCCCC#N)CC1 , reported MIC: > 127 µM

The compound identified as CN(C)C(=S)SC(=S)N1CCN(C(=O)OC(C)(C)C)CC1 registered its MIC at 143 µM

For this compound ( CCSC(=S)N1CCN(C(=S)SC(=S)N(C)C)CC1 ), measured MIC is 70.5 µM

Reference source for all entries: ChEMBL document CHEMBL4138228
